testedOn: control isotype anti-KLH IgM Ab (C48-6; BD Bioscience-Pharmingen)
assayName: phage ELISA, coated control IgM
Bridges are numbered along the chain shown (N, C = ends). Where no end group is shown, it is not given here.
endpointLabel: OD (binding of phages to control IgM) (OD)
All answers are understood in OD, so give the number only.

// query Determine its reported OD (binding of phages to control IgM): HRMTNAMHHFMGGGGS (peptide, not shown: large carriers) [phage clone A38]
// result 0.21

// query Determine its reported OD (binding of phages to control IgM): ACNNYNMPLCGGGS (peptide, not shown: large carriers, disulfide 2-10; also: C-terminus fused to phage pIII) [phage clone Cb589]
// result 0.1

// query Determine its reported OD (binding of phages to control IgM): EVMNNWTLASIMGGGS (peptide, not shown: large carriers) [phage clone M30]
// result 0.03

// query Determine its reported OD (binding of phages to control IgM): ADPFSPTNRIPLGGGS (peptide, not shown: large carriers) [phage clone M7]
// result 0.03

// query Determine its reported OD (binding of phages to control IgM): ACKNSXQPLCGGGS (peptide, not shown: large carriers, disulfide 2-10; not fully specified; X: residue not identified in the source) [phage clone Ca4]
// result 0.1

// query Determine its reported OD (binding of phages to control IgM): ESWTNSWAMYFGGGGS (peptide, not shown: large carriers) [phage clone M2]
// result 0.03

Data provenance: patent US20150056209A1
